The reported numbers originate from PubChem BioAssay (NCATS).

Experimental protocol: qHTS of pediatric cancer cell lines to identify multiple opportunities for drug repurposing: Confirmatory screen for BT-12 cells (AID 1347112);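 further: viability read after 48 h of compound exposure; nearly all actives have a fitted effect of over 55% in size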
Assay conditions: BT-12 rhabdoid tumor cells, viability; series mostly up to 45.9 µM
Inconclusive results are not listed. The source made the active and inactive calls. The call rests on the fitted dose curve; in most records, active means well fitted cell-killing curve with a large enough effect; inconclusive means small, poorly fitted or top-dose-only effect; inactive means flat fitted curve, though single readings scatter.
Thanks in advance; please answer with one of these: active, inactive

Study these solved cases before continuing.
Molecule: Cc1cnc(Nc2ccc(N3CCN(C)CC3)cc2)nc1Nc1cccc(S(=O)(=O)NC(C)(C)C)c1
Classification: active
--
Molecule: CC(C)C[C@H](NC(=O)CNC(=O)c1cc(Cl)ccc1Cl)B1OC(=O)CC(CC(=O)O)(C(=O)O)O1 (stereo partly drawn)
Classification: active

Data request: Write down the call the test reported for this molecule. Item: `C=Cc1c(C)c2cc3nc(cc4[nH]c(cc5nc(cc1[nH]2)C(C)=C5CCC(=O)O)c(CCC(=O)OC)c4C)[C@@]1(C)C3=CC=C(C(=O)OC)[C@H]1C(=O)OC`
Data returned: inactive

Data request: Write down the call the test reported for this molecule. Item: `COc1cccc2c1C(=O)c1c(O)c3c(c(O)c1C2=O)C[C@@](O)(C(=O)CO)C[C@H]3O[C@H]1C[C@H](N)[C@H](O)[C@H](C)O1`
Data returned: active

Data request: Write down the call the test reported for this molecule. Item: `C=CC(=O)Nc1ccc2ncnc(Nc3ccc(OCc4cccc(F)c4)c(Cl)c3)c2c1`
Data returned: active

Data request: Write down the call the test reported for this molecule. Item: `CN[C@H]1[C@@H](O)[C@@H]2O[C@@H]3O[C@H](C)CC(=O)[C@]3(O)O[C@@H]2[C@@H](NC)[C@H]1O`
Data returned: inactive

Data request: Write down the call the test reported for this molecule. Item: COc1cccc2c1C(=O)c1c(O)c3c(c(O)c1C2=O)C[C@@](O)(C(=O)CO)C[C@@H]3O[C@H]1C[C@H](N)[C@H](OC2CCCCO2)[C@H](C)O1 (stereo partly drawn)
Data returned: active

Data request: Write down the call the test reported for this molecule. Item: `Cc1[nH]c(C=C2C(=O)Nc3ccccc32)c(C)c1CCC(=O)O`
Data returned: inactive

---

Experimental protocol: qHTS of pediatric cancer cell lines to identify multiple opportunities for drug repurposing: Primary screen for OHS-50 cells (AID 1347103); further: nearly all actives have a fitted effect of over 40% in size; further: potency means the concentration at half of the fitted maximal effect
Assay conditions: OHS-50 osteosarcoma viability, CellTiter-Glo luminescence, 48 h; series mostly up to 57.3 µM
Results filed as inconclusive are left out. The source made the active and inactive calls. Calls come from the whole dose curve; as a rule, active = well fitted cell-killing curve with a large enough effect; inconclusive = small, poorly fitted or top-dose-only effect; inactive = no such curve, though single readings can be large or run the other way.
Experimental endpoint: Potency

// known answers, use as guide
Compound: CC(C)N1[N]C(=C2C=c3cc(O)ccc3=N2)c2c(N)ncnc21
Potency: 273 nM (active)
//
Compound: COc1ccnc2[nH]cc(C(=O)C(=O)N3CCN(C(=O)c4ccccc4)C[C@@H]3C)c12
Potency: inactive
//
Compound: CCCCOc1ccc(C(=O)Nc2ccc(F)cc2F)cc1
Potency: inactive
//
Compound: N#Cc1c(C2CCNCC2)cc(-c2c(O)cccc2OCC2CC2)nc1N
Potency: 15300 nM (active)
//
Compound: CCOC(=O)C1=C(C)NC(=S)NC1c1cccc(O)c1 (stereo not given)
Potency: 96.8 nM (active)

API: the following record is the query input.
Data request: Read the entry `O=C(Nc1nnc(-c2ccco2)o1)c1cc(-c2ccccc2)nc2ccccc12` and write its reported Potency.
Data returned: 30600 nM (active)

---

Experimental protocol: Quantitative High-Throughput drug screen in 47 multiple myeloma cell lines against the NCATS MIPE library collection: EJM_DSMZ cell viability assay (AID 1918926; further: nearly all actives have a fitted effect of over 30% in size)
Assay conditions: EJM myeloma cell viability, CellTiter-Glo ATP, 48 h; series mostly up to 45.8 µM
Inconclusive results are not listed. The source made the active and inactive calls. Calls come from the whole dose curve; as a rule, active = well fitted cell-killing curve with a large enough effect; inconclusive = small, poorly fitted or top-dose-only effect, or effect the other way; inactive = no such curve, though single readings can be large or run the other way.
Thanks in advance; please answer with one of these: active, inactive

Study these solved cases before continuing.
Molecule: Cc1cn([C@@H]2O[C@H](CO)[C@@H](O)[C@H]2F)c(=O)[nH]c1=O
Classification: inactive

Molecule: C=CCNc1c(O)cc2c(O)c1C[C@@H](C)C[C@H](OC)[C@@H](O)[C@@H](C)C=C(C)[C@H](OC(N)=O)[C@@H](OC)C=CC=C(C)C(=O)N2
Classification: active

Molecule: C[C@H](CCC(=O)O)[C@H]1CCC2C3C[C@H](O)[C@@H]4C[C@H](O)CC[C@]4(C)C3CC[C@@]21C (stereo partly drawn)
Classification: inactive

Molecule: O=C(O)C=Cc1ccc(Cn2ccnc2)cc1
Classification: inactive

Data request: Write down the call the test reported for this molecule. Item: `CC(=O)N1CCN(c2ccc(OCc3nn(C)c(C)c3-c3cccc4c(CCCOc5cccc6ccccc56)c(C(=O)O)n(Cc5cccnc5)c34)cc2)CC1`
Data returned: active

Data request: Write down the call the test reported for this molecule. Item: COc1cccc2c1C(=O)c1c(O)c3c(c(O)c1C2=O)C[C@@](O)(C(=O)CO)C[C@@H]3O[C@H]1C[C@H](N)[C@H](OC2CCCCO2)[C@H](C)O1 (stereo partly drawn)
Data returned: active
